Consider the following compounds; for each one, report its inhibition.
- tested.on: NT-3 growth factor receptor (Homo sapiens)
- reported.conditions: at 1 µM;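 also: mean TRKC inhibition from the GSK PKIS kinase inhibitor set, with assays run by Nanosyn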
Reply with just the number (in %).

Entry NC(=O)c1ccc2c(-c3ccnc(NCCCO)n3)c(-c3ccc(F)cc3)nn2c1 : reported inhibition = ? 2.98

Let us now turn to Cn1c(-c2nonc2N)nc2cnccc21 1.22

Do the same for NS(=O)(=O)c1ccc(N/N=C2\C(=O)Nc3cccc(CCc4ccncc4)c32)cc1 please 41.9

Same for N#Cc1ccc2c(-c3ccnc(NC4CC4)n3)c(-c3ccc(F)cc3)nn2c1 -1.48

What do we get for N#Cc1cccc(Nc2ncc(-c3ccccc3)o2)c1 ? 25.1

How about this compound: NS(=O)(=O)c1cccc(N/C=C2\C(=O)Nc3ccccc32)c1 32.3

What do you get for CC1=C(C(=O)Nc2ccc3[nH]nc(C)c3c2)C(c2ccc(C(F)(F)F)cc2)CC(=O)N1 (configuration not stated) ? 6.4

Can you check COc1cc(Nc2ncc(-c3ccccc3)o2)cc(OC)c1 next? 30.5

Okay, and OCCCNc1nccc(-c2c(-c3ccc(F)cc3)nn3cc(C(F)(F)F)ccc23)n1 ? 2.72

What do you get for COc1cc(N2CCN(C(C)C)CC2)ccc1Nc1nc(Nc2cccc3ncccc23)c2cc[nH]c2n1 ? 0.74

And what about the compound CS(=O)(=O)CCNCc1ccoc1-c1ccc2ncnc(Nc3ccc(OCc4ccccc4)cc3)c2c1 ? 1.74

How about this compound: CS(=O)(=O)Nc1ccc(-c2ccc3c(NC(=O)C4CC4)n[nH]c3c2)cc1 9.06
